Tested on: test plant species
Test: Post-emergent herbicidal activity test (greenhouse, foliar spray, visual growth reduction)
Type: in vivo
Settings: post-emergence, 336 h, ALOMY: blackgrass (Alopecurus myosuroides), 140 g ai/ha, 14 days after application, read-out: Visual Growth Reduction (%) 14 Days After Application, ALOMY
From the text: Post-emergent Test: Seeds or nutlets of the desired test plant species were planted in Sun Gro Metro-Mix® 360 planting mixture, which typically has a pH of 6.0 to 6.8 and an organic matter content of about 30 percent, in plastic pots with a surface area of 64 square centimeters. In some aspects, to ensure good germination and healthy plants, a fungicide treatment and/or other chemical or physical treatment was applied. […]

CHEM SMILES: COC(=O)c1nc(-c2cc3c(cc2Cl)OC(F)(F)O3)c(F)cc1Cl
pest or weed control at 140 g/ha: 60 to 74%
--
CHEM SMILES: COC(=O)c1nc(-c2ccc(C(F)(F)F)nc2)c(Cl)cc1Cl
pest or weed control at 140 g/ha: 0 to 29%
--
CHEM SMILES: COC(=O)c1nc(-c2ccc3c(c2)OC(F)(F)O3)ccc1Cl
pest or weed control at 140 g/ha: 0 to 29%
--
CHEM SMILES: N#Cc1cc(C(F)(F)F)cc(Cl)c1-c1ccc(Cl)c(C(=O)O)n1
pest or weed control at 140 g/ha: 0 to 29%
--
CHEM SMILES: COC(=O)c1nc(-c2ccc(C#N)c(Cl)c2)ccc1Cl
pest or weed control at 140 g/ha: 0 to 29%
--
CHEM SMILES: COC(=O)c1nc(-c2cc(O)c(Cl)cc2F)ccc1Cl
pest or weed control at 140 g/ha: 0 to 29%
--
CHEM SMILES: COC(=O)c1nc(-c2ccc(OC)cc2Cl)ccc1Cl
pest or weed control at 140 g/ha: 0 to 29%
--
CHEM SMILES: COC(=O)c1nc(-c2cc(Br)c(C(F)(F)F)cc2Cl)c(F)cc1Cl
pest or weed control at 140 g/ha: 0 to 29%
--
CHEM SMILES: COC(=O)c1nc(-c2ccc(C#N)cc2Cl)ccc1Cl
pest or weed control at 140 g/ha: 0 to 29%
--
CHEM SMILES: COC(=O)c1nc(-c2cc3c(cc2F)OC(F)(F)O3)ccc1Cl
pest or weed control at 140 g/ha: 30 to 44%
